# Tested on: S. aureus MRSA 33592
# Type: cell-based, Staphylococcus aureus
# condition_summary: low salt, 10 mM sodium phosphate, 3 h
Ends that are not written are not given here.
Quick reference: EC50 of the listed items.

| monomer_sequence | relation_symbol | EC50, µg/mL |
| --- | --- | --- |
| FLIKILKGGKGGK [PHNX-5] | > | 10 |
| FIGAIASYLKKFR [PHNX-6] | = | 7.95 |
| GVVDIIKGAGKKFAKGLAGKIANKK [PHNX-7] | = | 2.09 |
